Where do these numbers come from? They come from patent US9949980B2.

protocol: in vitro
recorded conditions: human, Viability (CelTiter Glow)
quantity: viability at 52 h, 3 μM (%)
Quick note: give the figure in %, leave out the unit.

Ask: For COc1cc(C=C2C(=O)NN(c3ccc(Cl)c(Cl)c3)C2=O)c([N+](=O)[O-])cc1OC , what is its reported viability at 52 h, 3 μM?
Reply: 75.1

Ask: For CCOc1ccc(C(=O)Nc2ccc3oc(-c4ccccc4Br)nc3c2)cc1 , what is its reported viability at 52 h, 3 μM?
Reply: 93.8

Ask: For CCOc1cccc(C(=O)Nc2ccc(NC(=O)c3ccco3)c(OC)c2)c1 , what is its reported viability at 52 h, 3 μM?
Reply: 103

Ask: For Cc1ccnc(NS(=O)(=O)c2ccc(N3C(=O)c4ccccc4C3=O)cc2)n1 , what is its reported viability at 52 h, 3 μM?
Reply: 113

Ask: For CC1=C(C(=O)Nc2ccc(C)c(Cl)c2)C(c2ccc(F)cc2)NC(=O)N1 (centres unmarked) , what is its reported viability at 52 h, 3 μM?
Reply: 92

Ask: For COc1cc(C=C2SC(=S)NC2=O)cc(Cl)c1OC(C)C , what is its reported viability at 52 h, 3 μM?
Reply: 66.8

Ask: For COc1ccc(C(NC(=O)Cc2ccccc2)c2ccc3cccnc3c2O)cc1 (centres unmarked) , what is its reported viability at 52 h, 3 μM?
Reply: 59.8

Ask: For O=S(=O)(Nc1nc2ccccc2nc1Nc1ccccc1)c1ccccc1 , what is its reported viability at 52 h, 3 μM?
Reply: 106

---

Test system: HPV16 pseudoviruses
protocol: microbe, parasite or virus in culture
Assay type: cell-based
recorded conditions: Human papillomavirus 16, HEK-293T, 48 h, read-out: Infectivity (SEAP Activity), 3 μM HTS standard concentration, 293T cells, 48 hrs
Lab note: class by activity at 3 µM, see small value (below 40%), mid value (40% to below 50%), large value (50% or more)

Ask: Note: place this compound into its band. Item: COc1cc(NC(=O)COc2ccccc2C)ccc1NC(=O)c1ccco1
Reply: large value

Ask: Note: place this compound into its band. Item: Cc1cc(C=C2C(=O)NC(=S)N(c3ccccc3F)C2=O)c(C)n1C
Reply: large value

Ask: Note: place this compound into its band. Item: O=C(NCc1c(Cl)cccc1Oc1ccccc1)Nc1ccc(F)cc1
Reply: small value

Ask: Note: place this compound into its band. Item: Cc1ccc(S(=O)(=O)N(C)c2ccc(Br)cc2C(=O)c2ccccc2)cc1
Reply: small value

Ask: Note: place this compound into its band. Item: ON=Cc1ccc(Cl)s1
Reply: large value

Ask: Note: place this compound into its band. Item: O=C(CCSc1ccc(C(F)(F)F)cc1)c1ccco1
Reply: large value

Ask: Note: place this compound into its band. Item: CS(=O)(=O)N(CC(=O)Nc1cccc(Br)c1)c1ccc(Cl)cc1
Reply: mid value

Ask: Note: place this compound into its band. Item: COc1ccc(C(NC(=O)Cc2ccccc2)c2ccc3cccnc3c2O)cc1 (stereo not drawn)
Reply: small value

Ask: Note: place this compound into its band. Item: CCCC(=O)NC(c1cccc([N+](=O)[O-])c1)c1ccc2cccnc2c1O (stereo not drawn)
Reply: small value

Ask: Note: place this compound into its band. Item: Cc1ccccc1OCCc1c(C)n[nH]c1C
Reply: small value

Ask: Note: place this compound into its band. Item: Cc1cccc(C=C2C(=O)NN(c3ccccc3)C2=O)c1
Reply: large value

Ask: Note: place this compound into its band. Item: Cc1cccc(NC(=O)Nc2ccc(C(C)(C)C)cc2)n1
Reply: mid value

Ask: Note: place this compound into its band. Item: CSc1nsc(SC)c1NC(=O)OCC1([N+](=O)[O-])COC(C)(C)OC1
Reply: large value

Ask: Note: place this compound into its band. Item: CC1CCc2c(sc(NC(=O)c3ccccc3)c2C(N)=O)C1 (stereo not drawn)
Reply: large value

Ask: Note: place this compound into its band. Item: CCN(C(=O)c1ccccc1Cl)c1ccccc1 [Compound 5272305, 2-chloro-N-ethyl-N-phenylbenzamide]
Reply: mid value

Ask: Note: place this compound into its band. Item: COc1cc(C=C2C(=O)NN(c3ccc(Cl)c(Cl)c3)C2=O)c([N+](=O)[O-])cc1OC
Reply: small value

Ask: Note: place this compound into its band. Item: O=C(NC(NC(=S)Nc1ccccc1[N+](=O)[O-])C(Cl)(Cl)Cl)c1ccco1 (stereo not drawn)
Reply: mid value

---

Test system: HPV16 pseudoviruses
protocol: microbe, parasite or virus in culture
Type: cell-based
recorded conditions: Human papillomavirus 16, HEK-293T, 48 h, read-out: Infectivity (SEAP Activity), 3 μM HTS standard concentration, 293T cells, 48 hrs
Hi there, I'd appreciate the recorded activity at 3 µM for every entry that follows.
Quick note: give the figure in %, leave out the unit.

Ask: Please state recorded activity at 3 µM (tested on HPV16 pseudoviruses) of Cc1ccc2nc3nc(C)cc(C)c3c(N)c2c1
Reply: 34.6

Ask: Please state recorded activity at 3 µM (tested on HPV16 pseudoviruses) of O=C(CSc1nc2cc([N+](=O)[O-])ccc2[nH]1)Nc1ccc2c(c1)OCO2
Reply: 52.5

Ask: Please state recorded activity at 3 µM (tested on HPV16 pseudoviruses) of Cc1ccc(CN2CCN(S(C)(=O)=O)CC2)cc1
Reply: 39.8

Ask: Please state recorded activity at 3 µM (tested on HPV16 pseudoviruses) of COC(=O)C1=C(C)NC2=C(C(=O)c3ccccc32)C1c1ccc(-c2ccccc2C(=O)O)o1 (centres unmarked)
Reply: 64

Ask: Please state recorded activity at 3 µM (tested on HPV16 pseudoviruses) of Cc1ccnc(NS(=O)(=O)c2ccc(N3C(=O)c4ccccc4C3=O)cc2)n1
Reply: 67

Ask: Please state recorded activity at 3 µM (tested on HPV16 pseudoviruses) of N#CCCN1CCCN(CCC#N)CCN(CCC#N)CCCN(CCC#N)CC1
Reply: 46.7

Ask: Please state recorded activity at 3 µM (tested on HPV16 pseudoviruses) of COc1cccc(C(=O)Nc2ccc3oc(-c4ccc(F)cc4Cl)nc3c2)c1
Reply: 42.5

Ask: Please state recorded activity at 3 µM (tested on HPV16 pseudoviruses) of Cc1ccc(OCc2nnc(NC(=O)Nc3ccc(Cl)c(Cl)c3)s2)cc1
Reply: 41.8

Ask: Please state recorded activity at 3 µM (tested on HPV16 pseudoviruses) of Cc1ccc(N2C(=O)C(Cl)=C(Nc3ccc(C)c(C)c3)C2=O)c(C)c1
Reply: 55.9

Ask: Please state recorded activity at 3 µM (tested on HPV16 pseudoviruses) of COC(=O)C1=C(C)NC2=C(C(=O)c3ccccc32)C1c1ccc(OCc2ccc([N+](=O)[O-])cc2)c(Cl)c1 (centres unmarked)
Reply: 51.4

Ask: Please state recorded activity at 3 µM (tested on HPV16 pseudoviruses) of COc1ccc(OC)c(NC(=O)CN(c2cc(OC)ccc2OC)S(C)(=O)=O)c1
Reply: 59.1

Ask: Please state recorded activity at 3 µM (tested on HPV16 pseudoviruses) of O=C1C(=Cc2cccc(O)c2)SC(=S)N1c1ccc(Cl)cc1
Reply: 56.3

Ask: Please state recorded activity at 3 µM (tested on HPV16 pseudoviruses) of CC(O)c1cccc(NC(=O)c2cc3n(n2)C(C(F)(F)F)CC(c2ccc(F)cc2)N3)c1 (centres unmarked)
Reply: 40.8

Ask: Please state recorded activity at 3 µM (tested on HPV16 pseudoviruses) of CCNS(=O)(=O)c1ccc(-c2oc3cc(S(=O)(=O)NCC)ccc3c2Cl)cc1
Reply: 37.7

Ask: Please state recorded activity at 3 µM (tested on HPV16 pseudoviruses) of COC(=O)C1=C(C)NC2=C(C(=O)c3ccccc32)C1c1cc2c(cc1Br)OCO2 (centres unmarked)
Reply: 19.1

Ask: Please state recorded activity at 3 µM (tested on HPV16 pseudoviruses) of CC1=C(C(=O)Nc2ccc(C)c(Cl)c2)C(c2ccc(F)cc2)NC(=O)N1 (centres unmarked)
Reply: 31.9

Ask: Please state recorded activity at 3 µM (tested on HPV16 pseudoviruses) of Cc1nc2ccccn2c1C(=O)NC(C)c1ccccc1 (centres unmarked)
Reply: 20.8

---

Test system: HPV16 pseudoviruses
protocol: microbe, parasite or virus in culture
Assay type: cell-based
recorded conditions: Human papillomavirus 16, HEK-293T, 48 h, read-out: Infectivity (SEAP Activity), 3 μM HTS standard concentration, 293T cells, 48 hrs
quantity: activity at 3 µM (%)
Quick note: give the figure in %, leave out the unit.

Ask: For CCOC(=O)CCc1c(C)nc2c(C)c(-c3ccccc3)nn2c1O , what is its reported activity at 3 µM?
Reply: 22.9

Ask: For Cc1ccc(C2Nc3ccccc3NC3=C2C(=O)CC(c2ccccc2)C3)s1 (centres unmarked) , what is its reported activity at 3 µM?
Reply: 44.1

Ask: For COc1ccc(C(O)(CNCc2ccccc2)c2ccc(Br)cc2)cc1 (centres unmarked) , what is its reported activity at 3 µM?
Reply: 29.9

Ask: For O=S1(=O)C=CC(Nc2cccc(C(F)(F)F)c2)C1 (centres unmarked) , what is its reported activity at 3 µM?
Reply: 28.4

Ask: For CC(=O)SCCC(=O)N1CCn2c3c(c4cc(C)ccc42)CCCC31 (centres unmarked) , what is its reported activity at 3 µM?
Reply: 56.8
